The reported measurements were obtained from paper PMC5984530.

Here's a batch of compounds along with measured pKd for UniProt A0A2U7XUH7.
Sequence (A0A2U7XUH7 whole entry): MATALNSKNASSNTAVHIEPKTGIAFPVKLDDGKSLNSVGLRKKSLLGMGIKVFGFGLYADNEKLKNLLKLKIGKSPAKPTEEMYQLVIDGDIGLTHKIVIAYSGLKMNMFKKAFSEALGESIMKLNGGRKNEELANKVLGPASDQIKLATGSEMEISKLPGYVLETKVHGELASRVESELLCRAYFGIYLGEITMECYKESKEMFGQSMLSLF
# reply with the number alone; pKd is -log10 of concentration in mol/L

CCCCCCCCCCCCCC(=O)O ... 5.46

Kindly consider the entry below.
[Q] # returns recorded pKd (system: UniProt A0A2U7XUH7) for `CC(C)=CCc1c(O)cc(O)c(C(=O)/C=C/c2ccc(O)cc2)c1O`
[A] 4.60
